Biological target: Torpedo californica acetylcholinesterase (tcAChE) (Tetronarce californica, UniProt P04058)
Sequence (P04058 22-586): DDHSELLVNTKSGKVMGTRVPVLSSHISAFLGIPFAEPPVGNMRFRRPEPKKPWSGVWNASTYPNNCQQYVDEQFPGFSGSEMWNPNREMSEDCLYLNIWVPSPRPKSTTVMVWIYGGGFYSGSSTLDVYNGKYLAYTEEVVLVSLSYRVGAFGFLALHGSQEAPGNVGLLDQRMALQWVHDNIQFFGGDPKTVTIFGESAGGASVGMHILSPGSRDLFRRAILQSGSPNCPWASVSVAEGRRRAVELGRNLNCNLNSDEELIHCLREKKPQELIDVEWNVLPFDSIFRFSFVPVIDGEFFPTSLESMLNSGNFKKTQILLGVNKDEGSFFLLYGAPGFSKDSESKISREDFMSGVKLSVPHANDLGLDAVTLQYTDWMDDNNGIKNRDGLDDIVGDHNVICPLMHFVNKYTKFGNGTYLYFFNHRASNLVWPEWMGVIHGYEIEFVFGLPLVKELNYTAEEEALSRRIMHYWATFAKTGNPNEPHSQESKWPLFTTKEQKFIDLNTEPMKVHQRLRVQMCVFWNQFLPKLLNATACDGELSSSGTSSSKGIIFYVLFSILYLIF
Where a name gives a salt, the structure may show the parent alone.
Result Type: IC50 (µM)
Give bare numbers, in µM.

Quick one: IC50 for COc1ccc2cc3[n+](cc2c1OC)CCc1cc2c(cc1-3)OCO2 [Ber, berberine hydrochloride] ? 3.23

Where do the numbers come from? From paper PMC7913148.
